All values here come from patent US20180334496A1.

Assay System: T1, recombinant human CFD mutant 1 (R157A, R207A), His-tagged (human, UniProt P00746 26-253)
T1 construct: positions are linear positions in the mature protein; also called rhCFD-mut1-His; Mut1
T1 sequence (P00746 26-253 R182A/R232A limits assumed): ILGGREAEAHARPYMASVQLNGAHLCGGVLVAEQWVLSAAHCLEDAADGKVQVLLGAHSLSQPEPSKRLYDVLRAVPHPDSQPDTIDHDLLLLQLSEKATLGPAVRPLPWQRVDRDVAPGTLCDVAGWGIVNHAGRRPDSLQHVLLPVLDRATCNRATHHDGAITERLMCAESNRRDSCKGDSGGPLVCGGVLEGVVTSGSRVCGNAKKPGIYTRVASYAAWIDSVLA
Assay Summary: ELISA
Catalogue of binders with associated Mut1 Binding (% wt)
Observation Type: Mut1 Binding (% wt)

1) KCD047 (antibody, V domains shown, chimeric) VH: EVQLQQSGAEFVKPGASVRLSCTASGFNIKDTYMHWVKQRPEQGLEWIGRIDPANGYTKDDPKFQGKATITADTSSNTAYLQLSSLTSEDTAVYYCASAMDYWGQGTSVTVSS VL: QIVLTQSPAVMSASPGEKVAMTCSASSSVTYMYWYQQKPGSSPRLLIYDTSNLASGVPVRFSGSGSGTSYSLTISRMEAEDAATYYCQQWSTYPFPFGSGTKLEIK: 58.9
2) KCD214 (antibody, V domains shown, chimeric) VH: EVQLQQSVAEFVRPGASVKLSCTASGFNIKNTYMHWVKQRPEQGLEWIGRIDPANGNTEYAPKFQGKATITADTSSNTAYLQLSSLTSEDTAIYYCALYDYDGYWGQGTTLTVSS VL: EIVLTQSPALMAASPGEKVTITCRVSSSISSSSLHWYQQKSGTSPKPWIYGTSNLASGVPVRFSGSRSGTSYSLTISSMEAEDAATYYCQQWSDYPWTFGGGTKLEIK: 44.3
3) KCD040 (antibody, V domains shown, chimeric) VH: EVQLQQSGAELVKPGASVKLSCTASDFNIKDTYMHWVMQRPEQGLEWIGKIDPANGNTEFDPKFQGKATITADTSSNTAYLQLTSLTSEDTAVYYCTRAMDYWGQGTSVTVSS VL: QIVLTQSPAIMSASPGEKVTMTCSAGSSVSYMYWYQQKPGSSPRVLIYDTSNLASGVPVRFSGSGSGTSYSLTISRMEAEDAATYYCQQWSNYPYTFGGGTKLEIK: 62.2
4) KCD224 (antibody, V domains shown, chimeric) VH: QVQLKESGPGLVAPSQSLSITCTVSGFSLTSYGVDWIRQSPGKGLEWLGVIWGVGSTNYNSALKSRLSISKDNSKSQVFLKMNSLQTDDTAMYYCARSYDGSYWYFDVWGTGTTVTVSS VL: DIQMTQTTSSLSASLGDRVTISCRASQVISNYLNWYQQKPDGTVKLLIYYTSRLHSGVPSRFSGSGSGTDYSLTISNLEPEDIATYYCQQYSKLPYTFGSGTKLEIK: 121
5) KCD208 (antibody, V domains shown, chimeric) VH: EVQLQQSVAELVRPGASVKLSCTVSGFNIKNTYMHWVKQRPEQGLEWIGRIDPANGDTTYAPKFQGKATITADTSSNSAYLHLSRLTSEDTAIYYCSLYDYDGYWGQGTTLTVSS VL: EIVLTQSPALMAASPGEKVTITCSVSSSISSSSLHWYRQKSGTSPKPWIYGTSHLASGVPVRFSGSGSGTSYSLTISSMEAEDAATYYCQQWDTYPWTFGGGTKLEIK: 56.7
6) KCD136 (antibody, V domains shown, chimeric) VH: EVQLQQSVAELVRPGASVKLSCSASGFNIKNTYMHWVNQRPEQGLEWIGRIDPANGITKYAPNFQGKATITADTSSNTAYLQLSNLTSEDTAIYYCTRAMDYWGQGTSVTVSS VL: QIVLTQSPAIMSASPGEKVTMTCSASSSVSYMYWYQQKPGSSPRLLIYDISNLASGVPVRFSGSGSGTSYSLTISRMEAEDAATYYCQQWDTYPWTFGGGTKLEIK: 78.3
7) KCD042 (antibody, V domains shown, chimeric) VH: EVQLQQSGAELVKPGASVRLSCTASGFNIKHTYIHWVSQRPEQGLEWIGKIDPANGNTKYDPKFQGKATITADTSSNTAYLQLSSLTSEDTAVYYCVNAMEYWGQGTSVTVSS VL: QSVLTQSPAIMSASPGEKVTMTCSANSSVSDMYWFQQRPGSSPRLLIYDTSNLASGVPVRFSGSGSGTSYSLTISRMEAEDAATYYCQQWSTYPWTFGGGTKLEIK: 65.6
8) KCD044 (antibody, V domains shown, chimeric) VH: EVQLQQSGAELVKPGASVRLSCTASGFNIKHTYMHWVSQRPERGLEWIGKIDPANGNTKYDPKFQGKATITADTSSNTVYLQLSSLTSEDTAVYYCLNAMEYWGQGTSVTVSS VL: QSVLTQSPAIMSASPGEKVTMTCSANSSVSDMYWYQQRPGSSPRLLIYDTSNLASGVPVRFSGSGSGTSYSLTISRMEAEDAATYYCQQWSTYPWTFGGGTKLEIK: 62.5
